- systemTested: UniProt P29275
- Sequence (whole entry): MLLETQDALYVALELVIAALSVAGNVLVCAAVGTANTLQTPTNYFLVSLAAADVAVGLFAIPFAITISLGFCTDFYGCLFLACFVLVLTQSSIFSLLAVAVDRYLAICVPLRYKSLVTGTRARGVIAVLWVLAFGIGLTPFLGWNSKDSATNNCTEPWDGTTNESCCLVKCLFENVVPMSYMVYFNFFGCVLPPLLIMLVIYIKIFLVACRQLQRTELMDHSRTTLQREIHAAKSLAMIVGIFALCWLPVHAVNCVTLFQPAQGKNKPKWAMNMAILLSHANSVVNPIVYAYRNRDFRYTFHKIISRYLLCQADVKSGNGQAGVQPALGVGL
- protocolSummary: Displacement of [3H]MRS1754 from human adenosine A2B receptor expressed in CHO cells at 10 uM
- Assay type: cell-based
Classification by Activity | ranges: range A (below 30%), range B (30% to below 60%), range C (60% or more)

Request: Consider `O=C(Nc1cc(Nc2ccccc2)nc2ccccc12)c1ccccc1` . To which Activity class does it belong?
Response: range C

Request: Consider `O=C(Nc1cc(Nc2ccc3c(c2)CCC3)nc2ccccc12)C1CCCC1` . To which Activity class does it belong?
Response: range C

Request: Consider `O=C(Nc1cc(Nc2ccc3c(c2)CCC3)nc2ccccc12)C1CCCCC1` . To which Activity class does it belong?
Response: range B

Request: Consider `O=C(Nc1cc(NC2CCCC2)nc2ccccc12)C1CCCC1` . To which Activity class does it belong?
Response: range A

Request: Consider `O=C(Nc1cc(Nc2ccc(Cl)c(Cl)c2)nc2ccccc12)C1CCCCC1` . To which Activity class does it belong?
Response: range A

Request: Consider `O=C(Nc1cc(Nc2ccccc2)nc2ccccc12)C1CCCCC1` . To which Activity class does it belong?
Response: range A

Request: Consider `O=C(Nc1cc(Nc2ccc3cn[nH]c3c2)nc2ccccc12)C1CCCC1` . To which Activity class does it belong?
Response: range C

Request: Consider `O=C(Nc1cc(NCc2ccccc2)nc2ccccc12)C1CCCC1` . To which Activity class does it belong?
Response: range A

Request: Consider `O=C(Nc1cc(Nc2ccc(Cl)c(Cl)c2)nc2ccccc12)c1ccco1` . To which Activity class does it belong?
Response: range A

Request: Consider `Clc1ccc(Nc2nc3ccccc3c3nc(C4CCCCC4)[nH]c23)cc1Cl` . To which Activity class does it belong?
Response: range B

----------
- systemTested: Adenosine receptor A2a (Homo sapiens)
- protocolSummary: Displacement of [3H]ZM241385 from human adenosine A2A receptor expressed in HEK293 cells at 10 uM
- Format: cell-based
endpoint: Activity (%)
Provide the reading as a plain figure in %.

Field Activity (Adenosine receptor A2a (Homo sapiens)), entry `O=C(Nc1cc(Nc2ccc(Cl)c(Cl)c2)nc2ccccc12)C1CCCC1` : -74

Field Activity (Adenosine receptor A2a (Homo sapiens)), entry `O=C(Nc1cc(Nc2ccc(Cl)c(Cl)c2)nc2ccccc12)c1ccco1` : 10

Field Activity (Adenosine receptor A2a (Homo sapiens)), entry `O=C(Nc1cc(Nc2ccc3c(c2)CCC3)nc2ccccc12)C1CCCC1` : 14

Field Activity (Adenosine receptor A2a (Homo sapiens)), entry `COc1ccc(Nc2cc(NC(=O)C3CCCC3)c3ccccc3n2)cc1` : 19

Field Activity (Adenosine receptor A2a (Homo sapiens)), entry `O=C(Nc1cc(Nc2ccc3cn[nH]c3c2)nc2ccccc12)C1CCCC1` : 56

Field Activity (Adenosine receptor A2a (Homo sapiens)), entry `O=C(Nc1cc(NCc2ccccc2)nc2ccccc12)C1CCCC1` : 49

Field Activity (Adenosine receptor A2a (Homo sapiens)), entry `O=C(Nc1cc(NC2CCCC2)nc2ccccc12)C1CCCC1` : 72

Field Activity (Adenosine receptor A2a (Homo sapiens)), entry `O=C(Nc1cc(Nc2ccc(Cl)c(Cl)c2)nc2ccccc12)C1CCCCC1` : -19

Field Activity (Adenosine receptor A2a (Homo sapiens)), entry `O=C(Nc1cc(Nc2ccccc2)nc2ccccc12)C1CCC1` : 79

Field Activity (Adenosine receptor A2a (Homo sapiens)), entry `O=C(Nc1cc(Nc2ccccc2)nc2ccccc12)c1ccco1` : 95

Field Activity (Adenosine receptor A2a (Homo sapiens)), entry `O=C(Nc1cc(Nc2ccc(Cl)c(Cl)c2)nc2ccccc12)C1CCC1` : 38
